Hey, just so you know, these numbers are from ChEMBL document CHEMBL4393720.

- test-description: MRT in female Sprague-Dawley rat at 10 mg/kg, po measured up to 24 hrs by LC/MS-MS analysis
- Assay type: ADME, organism-based
- assay-setup: in vivo

smiles-record	display-unit	MRT
Fc1ccc(/C=N/Nc2nc(-c3ccc(C(F)(F)F)cc3)cs2)cc1F	h	1.62

* * *

- test-description: Cmax in female Sprague-Dawley rat at 2 mg/kg, iv measured up to 24 hrs by LC/MS-MS analysis
- Format: ADME, organism-based
- Parameters: dose 2 mg/kg, route intravenous
- assay-setup: in vivo
endpoint-name: Cmax (µM)

smiles-record	endpoint-name	display-unit	numeric-result
Fc1ccc(/C=N/Nc2nc(-c3ccc(C(F)(F)F)cc3)cs2)cc1F	Cmax	µM	126
